Measured values drawn from PubChem BioAssay (NCI) for this set.

Experiment: NCI Yeast Anticancer Drug Screen. Data for the mec2-1 strain (AID 157)
Details: S. cerevisiae mec2-1 strain, at 50.0 µM, active compounds read high
About 79,000 compounds went through this panel and 15% of them were active in at least one assay; those are over-represented in the sample as a whole. Calls of active or inactive are those of the source. Rule as the data show it: active = growth inhibition above about 70%; inactive = the rest.
recorded.metric: growth inhibition

O=C(CP(=O)(c1ccccc1)c1ccccc1)c1cccc(C(=O)CP(=O)(c2ccccc2)c2ccccc2)c1: -10.1% (inactive)

Now take the following compound into account.
[Q] Reported growth inhibition, compound CCOC(=O)NC(Nc1cccc(F)c1)(C(F)(F)F)C(F)(F)F : ____
[A] -9.05% (inactive)

====

Test: NCI Yeast Anticancer Drug Screen. Data for the mec2-1 strain (AID 157)
Conditions: S. cerevisiae mec2-1 strain, at 50.0 µM, active compounds read high
This is part of a sample that, as a whole, favours compounds with a hit. Of some 79,000 tested, about 15% had one in any assay.
recorded.metric: growth inhibition (%)
Reply with just the number (in %).

COc1cc2c(cc1OC)C(c1ccccc1CCCCl)=NCC2: -4
C=C(C)C(=O)OCCN(CC)CC: -4.15

[Q] Quick one: growth inhibition of O=C(O)/C=C/c1c2ccc(=O)c(O)c-2oc2c(O)c(O)ccc12 ?
[A] 24.4

[Q] Quick one: growth inhibition of O=S(=O)(CS(=O)(=O)N1CCCCC1)N1CCCCC1 ?
[A] -5.4

[Q] Endpoint output: growth inhibition of COc1cc(N=Nc2ccc(N)nc2N)c(OC)cc1N=Nc1ccc([N+](=O)[O-])cc1 . Value?
[A] 23

[Q] Given O=C(O)c1ccc2c(c1C(=O)O)C(=O)OC2(c1ccc(O)cc1)c1ccc(O)cc1 , state its recorded growth inhibition.
[A] 11.7

====

Test: NCI Yeast Anticancer Drug Screen. Data for the bub3 strain (AID 167)
Settings: S. cerevisiae bub3 mutant strain, at 50.0 µM, active compounds read high
About 79,000 compounds went through this panel and 15% of them were active in at least one assay; those are over-represented in the sample as a whole.
recorded.metric: growth inhibition (%)
// return numeric value only (unit: %, not printed)

[Q] Any idea what its growth inhibition is? The molecule is O=[N+]([O-])c1ccc(C2=NN(c3ccccc3)C(c3ccccc3)C2)cc1 (stereo not given)
[A] 8.85

[Q] State the recorded growth inhibition for this entry: O.O.[Cu+2].[Cu+2].[NH-]CCC(=O)[N-]C(Cc1cnc[nH]1)C(=O)O.[NH-]CCC(=O)[N-]C(Cc1cnc[nH]1)C(=O)O (stereo not given)
[A] 6.35

[Q] What does the data say about its growth inhibition? Entry: CC1=NN(C(=O)CC(=O)Nc2ccccc2Cl)C(=O)C1N=Nc1ccc(C(=O)O)cc1 (stereo not given)
[A] -5.6

[Q] Find the recorded growth inhibition belonging to C=C/C=C1\CCOC1=O and report it.
[A] 3.1

[Q] What value of measured growth inhibition is listed for Cc1ccc(S(=O)(=O)N/N=C/c2cc(I)cc(I)c2O)cc1 ?
[A] 98.3

====

Experiment: NCI Yeast Anticancer Drug Screen. Data for the rad50 strain (AID 155);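 also: 0% = growth of vehicle-only cultures of the same strain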
Settings: S. cerevisiae rad50 strain growth inhibition; at 50.0 µM; active compounds read high
Compounds without any hit were thinned out: in the full panel of roughly 79,000, 15% have a hit.
// label = MET if growth inhibition is not less than 10%, otherwise NOT MET

CCCCCCCCCCCCCCCCCCS: NOT MET

[Q] Please check the record O=C(COCC(=O)N/N=C/c1c(O)ccc2ccccc12)N/N=C/c1c(O)ccc2ccccc12 and state if its growth inhibition is at or above 10%.
[A] NOT MET

[Q] State whether the measured growth inhibition reaches 10%, counting equality as reaching it, for Cc1cc(Br)cc2c1NC(=O)C(C)C2C (stereo not drawn)
[A] NOT MET

[Q] I'd appreciate it if you could say whether CCN(CC)CCNc1ccc(OC)c2sc3ccccc3c(=O)c12 has growth inhibition at least equal to 10%.
[A] MET

[Q] Given O=C(Oc1ccco1)c1ccc([N+](=O)[O-])cc1 , state whether its growth inhibition is at least 10%.
[A] NOT MET

[Q] Could you please find out whether O=C(NNC(=O)c1ccc([N+](=O)[O-])cc1)c1ccccc1 has growth inhibition that meets 10% or exceeds it?
[A] NOT MET

[Q] Is growth inhibition at least 10%? Consider O=C(c1ccccc1)C1CCCCN1C(=O)c1ccccc1 (stereo not drawn)
[A] NOT MET

[Q] Form field: growth inhibition at least 10%? Entry: Cc1csc(NNC(=O)Nc2ccccc2)n1
[A] MET

[Q] Is growth inhibition at least 10%? Consider COc1ccc(C2c3cc4c(cc3OC(N3CCOCC3)C2C)OCO4)c(OC)c1OC (stereo not drawn)
[A] NOT MET

[Q] Check if growth inhibition >= 10% (inclusive). Item: O=[N+]([O-])c1ccc(Oc2ccc(Cl)cc2)cc1
[A] MET
